experiment: Solubility of compound at pH 2; assay type: physicochemical; conditions: buffer
measurementType: solubility (µM)

mol=COc1cc2c(cc1Nc1ncc(C(N)=O)c(Nc3ccccc3)n1)CN(C)CC2 measurementtype=solubility measuredvalue=166
mol=COc1cc2c(cc1Nc1ncc(C)c(Nc3ccccc3)n1)CN(C)CC2 measurementtype=solubility measuredvalue=179
mol=COc1cc2c(cc1Nc1ncc(C(F)(F)F)c(Nc3ccccc3)n1)CN(C)CC2 measurementtype=solubility measuredvalue=157
mol=COc1cc2c(cc1Nc1nccc(Nc3ccccc3)n1)CN(C)CC2 measurementtype=solubility measuredvalue=160

----------
experiment: Volume of distribution in Wistar Han rat at 0.1 mg/kg, iv; assay type: ADME, organism-based; details: in vivo
measurementType: Vd (L/kg)

mol=COc1cc2c(cc1Nc1ncc(C(N)=O)c(Nc3c(F)cccc3C(F)(F)F)n1)CN(C)CC2 measuredvalue=2

(P) COc1cc2c(cc1Nc1ncc(C(N)=O)c(Nc3ccccc3[C@H](C)OC)n1)CN(C)CC2
(Q) COc1cc2c(cc1Nc1ncc(C(N)=O)c(Nc3ccccc3CO)n1)CN(C)CC2
Of the two listed items, P and Q , which carries the larger Vd figure? Refer to your chosen entry by its label in the reply.
Q
(Q: 65 L/kg, P: 1.8 L/kg)

----------
experiment: Metabolic stability in rat hepatocytes assessed as intrinsic clearance; type: ADME, cell-based, Hepatocyte
measurementType: CLint (µL/min/1e6 cells)

mol=COc1cc2c(cc1Nc1ncc(C(N)=O)c(Nc3c(C)cccc3F)n1)CN(C)CC2 measurementtype=CLint measureunit="µL/min/1e6 cells" measuredvalue=69
mol=COc1cc2c(cc1Nc1ncc(C(N)=O)c(NC3CCCC3)n1)CN(C)CC2 measurementtype=CLint measureunit="µL/min/1e6 cells" measuredvalue=28

(A) COc1cc2c(cc1Nc1ncc(C(N)=O)c(Nc3ccccc3)n1)CN(C)CC2
(B) COc1cc2c(cc1Nc1ncc(C(N)=O)c(Nc3ccccc3Br)n1)CN(C)CC2
Smaller CLint value, A vs B ? Refer to your chosen entry by its label in the reply.
B

----------
assay: AUC in C57BL/6 mouse at 100 mg/kg, po measured after 8 hrs; format: ADME, organism-based; set-up: route oral, dose 100 mg/kg, time 8 hrs; settings: in vivo
measurementType: AUC (µM·h)
Field: numeric (µM·h). Do not append units.

Using the record for COc1cc2c(cc1Nc1ncc(C(N)=O)c(Nc3ccccc3CO)n1)CN(C)CC2 , report its AUC.
102

----------
assay: MRT in Wistar Han rat at 0.1 mg/kg, iv; type: ADME, organism-based; conditions: in vivo
measurementType: MRT (h)

mol=COc1cc2c(cc1Nc1ncc(C(N)=O)c(Nc3ccccc3)n1)CN(C)CC2 measurementtype=MRT measuredvalue=2.1

(P) COc1cc2c(cc1Nc1ncc(C(N)=O)c(Nc3ccccc3CO)n1)CN(C)CC2
(Q) COc1cc2c(cc1Nc1ncc(C(N)=O)c(Nc3ccccc3[C@H](C)OC)n1)CN(C)CC2
(R) COc1cc2c(cc1Nc1ncc(C(N)=O)c(Nc3c(F)cccc3C(F)(F)F)n1)CN(C)CC2
Order the items by recorded MRT; the first position goes to the largest value. Sort the labels as requested; that list is your answer.
P, R, Q
(P: 2 h, R: 1.3 h, Q: 0.5 h)

----------
assay: MRT in C57BL/6 mouse at 10 mg/kg, po or 1 mg/kg, iv; format: ADME, organism-based; conditions: in vivo
measurementType: MRT (min)

mol=COc1cc2c(cc1Nc1ncc(C(N)=O)c(Nc3ccccc3CO)n1)CN(C)CC2 measurementtype=MRT measuredvalue=39.6

(1) COc1cc2c(cc1Nc1ncc(C(N)=O)c(Nc3c(F)cccc3C(F)(F)F)n1)CN(C)CC2
(2) COc1cc2c(cc1Nc1ncc(C(N)=O)c(Nc3ccccc3[C@H](C)OC)n1)CN(C)CC2
(3) COc1cc2c(cc1Nc1ncc(C(N)=O)c(Nc3ccccc3)n1)CN(C)CC2
Give the ascending ranking of the items by reported MRT. Sort the labels as requested; that list is your answer.
2, 1, 3

----------
test: Unbound clearance in Wistar Han rat at 0.1 mg/kg, iv; type: ADME, organism-based; conditions: in vivo
measurementType: CL free (mL/min/kg)

mol=COc1cc2c(cc1Nc1ncc(C(N)=O)c(Nc3ccccc3[C@H](C)OC)n1)CN(C)CC2 measurementtype="CL free" measureunit=mL/min/kg measuredvalue=2057
mol=COc1cc2c(cc1Nc1ncc(C(N)=O)c(Nc3ccccc3)n1)CN(C)CC2 measurementtype="CL free" measureunit=mL/min/kg measuredvalue=415

(P) COc1cc2c(cc1Nc1ncc(C(N)=O)c(Nc3c(F)cccc3C(F)(F)F)n1)CN(C)CC2
(Q) COc1cc2c(cc1Nc1ncc(C(N)=O)c(Nc3ccccc3CO)n1)CN(C)CC2
Of the two listed items, P and Q , which carries the larger CL free figure? Refer to your chosen entry by its label in the reply.
P
(P: 1529 mL/min/kg, Q: 548 mL/min/kg)

----------
assay: Apparent permeability in dog MDCK-II cells; type: ADME, cell-based, Canis lupus familiaris
measurementType: Papp (×10⁻⁶ cm/s)

Example entries and their recorded answers appear below.
mol=COc1cc2c(cc1Nc1ncc(C(N)=O)c(NC3CCCC3)n1)CN(C)CC2 measuredvalue=3.6
mol=COc1cc2c(cc1Nc1ncc(C(N)=O)c(Nc3c(C)cccc3F)n1)CN(C)CC2 measuredvalue=2.78
mol=COc1cc2c(cc1Nc1ncc(C(N)=O)c(Nc3ccccc3)n1)CN(C)CC2 measuredvalue=2.5
mol=COc1cc2c(cc1Nc1ncc(C(N)=O)c(Nc3ccccc3[C@H](C)OC)n1)CN(C)CC2 measuredvalue=3.1

(I) COc1cc2c(cc1Nc1ncc(C(N)=O)c(Nc3c(F)cccc3C(F)(F)F)n1)CN(C)CC2
(II) COc1cc2c(cc1Nc1ncc(C(N)=O)c(Nc3ccccc3CO)n1)CN(C)CC2
Smaller Papp value, I vs II ? Refer to your chosen entry by its label in the reply.
II

----------
experiment: Volume of distribution in C57BL/6 mouse at 10 mg/kg, po or 1 mg/kg, iv; format: ADME, organism-based; conditions: in vivo
measurementType: Vd (L/kg)

(1) COc1cc2c(cc1Nc1ncc(C(N)=O)c(Nc3c(F)cccc3C(F)(F)F)n1)CN(C)CC2
(2) COc1cc2c(cc1Nc1ncc(C(N)=O)c(Nc3ccccc3CO)n1)CN(C)CC2
(3) COc1cc2c(cc1Nc1ncc(C(N)=O)c(Nc3ccccc3[C@H](C)OC)n1)CN(C)CC2
Sort the items above by Vd, starting with the smallest value. Sort the labels as requested; that list is your answer.
3, 2, 1
(3: 1 L/kg, 2: 29 L/kg, 1: 61 L/kg)

----------
experiment: Fraction unbound clearance in C57BL/6 mouse at 10 mg/kg, po or 1 mg/kg, iv; format: ADME, organism-based; settings: in vivo
measurementType: CL free (mL/min/kg)

Example entries and their recorded answers appear below.
mol=COc1cc2c(cc1Nc1ncc(C(N)=O)c(Nc3c(F)cccc3C(F)(F)F)n1)CN(C)CC2 measurementtype="CL free" measureunit=mL/min/kg measuredvalue=2170
mol=COc1cc2c(cc1Nc1ncc(C(N)=O)c(Nc3ccccc3)n1)CN(C)CC2 measurementtype="CL free" measureunit=mL/min/kg measuredvalue=2532

(A) COc1cc2c(cc1Nc1ncc(C(N)=O)c(Nc3ccccc3[C@H](C)OC)n1)CN(C)CC2
(B) COc1cc2c(cc1Nc1ncc(C(N)=O)c(Nc3ccccc3CO)n1)CN(C)CC2
Of the two listed items, A and B , which carries the larger CL free figure? Refer to your chosen entry by its label in the reply.
A
(A: 2452 mL/min/kg, B: 792 mL/min/kg)

----------
assay: Clearance in Wistar Han rat at 0.1 mg/kg, iv; format: ADME, organism-based; settings: in vivo
measurementType: clearance (mL/min/kg)

(a) COc1cc2c(cc1Nc1ncc(C(N)=O)c(Nc3ccccc3CO)n1)CN(C)CC2
(b) COc1cc2c(cc1Nc1ncc(C(N)=O)c(Nc3c(F)cccc3C(F)(F)F)n1)CN(C)CC2
Of the two listed items, a and b , which carries the larger clearance figure? Refer to your chosen entry by its label in the reply.
a

(I) COc1cc2c(cc1Nc1ncc(C(N)=O)c(Nc3ccccc3)n1)CN(C)CC2
(II) COc1cc2c(cc1Nc1ncc(C(N)=O)c(Nc3ccccc3[C@H](C)OC)n1)CN(C)CC2
Of the two listed items, I and II , which carries the larger clearance figure? Refer to your chosen entry by its label in the reply.
II

----------
assay: Clearance in C57BL/6 mouse at 10 mg/kg, po or 1 mg/kg, iv; type: ADME, organism-based; details: in vivo
measurementType: clearance (mL/min/kg)

(A) COc1cc2c(cc1Nc1ncc(C(N)=O)c(Nc3c(F)cccc3C(F)(F)F)n1)CN(C)CC2
(B) COc1cc2c(cc1Nc1ncc(C(N)=O)c(Nc3ccccc3CO)n1)CN(C)CC2
(C) COc1cc2c(cc1Nc1ncc(C(N)=O)c(Nc3ccccc3)n1)CN(C)CC2
Please list these molecules in decreasing order of clearance. Sort the labels as requested; that list is your answer.
B, C, A

The measured values listed here are drawn from ChEMBL document CHEMBL4814063.
